Tested on: Streptococcus pneumoniae
Experiment: Antimicrobial activity against penicillin- and erythromycin-resistant Streptococcus pneumoniae
Format: functional
Entries and their MIC

Below: 5 compounds and their reported MIC.
Compound: C/C(NCCOc1ccccc1Cl)=C1/C(=O)CN(C(=O)OC(C)(C)C)C1=O
Measured property: MIC
Result: > 64 µg/mL
//
Compound: COC(=O)[C@@]12CO[C@@H](C(C)(C)C)N1C(=O)/C(=C(\C)Nc1ccccc1)C2=O
Measured property: MIC
Result: > 32 µg/mL
//
Compound: CCOC(=O)[C@]12CO[C@H](C(C)(C)C)N1C(=O)/C(=C(\C)Nc1ncc(Cl)cn1)C2=O
Measured property: MIC
Result: > 32 µg/mL
//
Compound: CSCCC1C(=O)/C(=C(\CC23CC4CC(CC(C4)C2)C3)NCC(C)(C)CN(C)C)C(=O)N1C(C)=O (configuration not stated)
Measured property: MIC
Result: > 32 µg/mL
//
Compound: CCCCOCCCN/C(C)=C1/C(=O)N2[C@@H](C(C)(C)C)OC[C@]2(C(=O)OCC)C1=O
Measured property: MIC
Result: > 32 µg/mL

MIC recorded for this compound, CCOC(=O)[C@]12CO[C@H](C(C)(C)C)N1C(=O)/C(=C(/CC13CC4CC(CC(C4)C1)C3)NCC(C)(C)CN(C)C)C2=O , is > 32 µg/mL

MIC recorded for this compound, CCCCCCCCCCCCC/C(Nc1ccccc1)=C1\C(=O)CNC1=O , is > 32 µg/mL

MIC recorded for this compound, CCCCCCN/C(=C1/C(=O)CNC1=O)c1ccccc1 , is > 32 µg/mL

MIC recorded for this compound, CCN(CC)CCCC(C)N/C(CCCOc1ccccc1)=C1/C(=O)C(CC(C)C)N(C(=O)c2ccccc2)C1=O (configuration not stated) , is > 32 µg/mL

MIC recorded for this compound, COC(=O)[C@]12CO[C@H](C(C)(C)C)N1C(=O)/C(=C(/CCCOc1ccccc1)NCCN1CCCCC1)C2=O , is > 32 µg/mL

MIC recorded for this compound, CCCC(=O)N1CC(=O)/C(=C(\CCCCc2ccccc2)NC2CC(C)(C)N(C)C(C)(C)C2)C1=O , is > 32 µg/mL

MIC recorded for this compound, CCCCCCCCCCC/C(Nc1ccc(N)cc1)=C1\C(=O)CN(CCCCCC)C1=O , is > 32 µg/mL

MIC recorded for this compound, CCCCC/C(NC(C)CCCN(CC)CC)=C1\C(=O)C(CCSC)N(C(=O)CC(C)CC(C)(C)C)C1=O (configuration not stated) , is 4 µg/mL

MIC recorded for this compound, COC(=O)[C@@]12CO[C@@H](C(C)(C)C)N1C(=O)/C(=C(\C)NCC1CCC3CC1C3(C)C)C2=O (some centres not stated) , is > 32 µg/mL

MIC recorded for this compound, CCOC(=O)[C@]12CO[C@H](C(C)(C)C)N1C(=O)/C(=C(\C)NCc1cccc(CN3CCC(C)CC3)c1)C2=O , is > 32 µg/mL

MIC recorded for this compound, CSCCC1C(=O)/C(=C(\CC23CC4CC(C)(CC(C)(C4)C2)C3)NCC(C)(C)CN(C)C)C(=O)N1C(C)=O (configuration not stated) , is > 64 µg/mL

MIC recorded for this compound, COC(=O)[C@@]12CO[C@@H](C(C)(C)C)N1C(=O)/C(=C(\C)NC13CC4CC(CC(C4)C1)C3)C2=O , is > 64 µg/mL
